assay: chemical genetic growth profiling, strain panel (AID 1159580);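 note: tested at 20 µM; growth read once vehicle control cultures reached saturation at 30 °C; 1 = growth at the plate median or of vehicle wells; lower values mean less growth of the strain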; conditions: S. cerevisiae deletion strains, growth OD, locus YKL085W, strain MDH1 (second series), hits give low values
In all, about 5,500 compounds went through this assay and about 2,000 (36%) were called active. Another 18% or so got no clear call; they are omitted. The list shows a part of the results.
observed_property: normalized growth

1. C/C=C(\C)C(=O)O[C@H]1C[C@@H](OC(C)=O)[C@@]2(C(=O)OC)CO[C@@H]3C2[C@]12CO[C@](O)(C(=O)OC)[C@H]2[C@](C)(C12O[C@@]1(C)[C@H]1C[C@@H]2OC2OC=C[C@@]21O)[C@@H]3O (some centres undefined)
0.998
2. CC(=O)Oc1cc(OC(C)=O)c2c(c1)O[C@H](c1ccc(OC(C)=O)c(OC(C)=O)c1)[C@H](OC(C)=O)C2
1.01
3. CNCCC(Oc1ccc(C(F)(F)F)cc1)c1ccccc1 (centres undefined)
0.999
4. NC(=O)c1ccc[n+]([C@@H]2O[C@H](COP(=O)([O-])OP(=O)(O)OC[C@H]3O[C@@H](n4cnc5c(N)ncnc54)[C@H](OP(=O)(O)O)[C@@H]3O)[C@@H](O)[C@H]2O)c1
0.99
5. COc1cc(OC)c2c(c1)O[C@H](c1cc(OC)c(OC)c(OC)c1)[C@H](OC(=O)c1cc(OC)c(OC)c(OC)c1)C2
0.993
6. CCCCC[C@H]1C(=O)O[C@H](C)[C@H](NC(=O)c2cccc(NC=O)c2O)C(=O)O[C@@H](C)[C@@H]1OC(=O)CC(C)C
0.961
7. NCCCS(=O)(=O)O
0.986
8. NCCc1cnc[nH]1
1.01
9. C#CCN(C)Cc1ccccc1
1

====

experiment: chemical genetic growth profiling, strain panel (AID 1159580); details: S. cerevisiae deletion strains, growth OD, locus YDL005C, strain med2, hits give low values
Out of some 5,500 compounds screened, about 2,000 (36%) were called active. About 18% were inconclusive and are not listed. The list shows a part of the results.
Reported normalized growth values for the following compounds.
observed_property: normalized growth

1. CC[C@@H](C(=O)C(C)[C@@H](O)[C@H](C)CCc1ccc(C)c(O)c1C(=O)O)C1OC(CC)(C2CC[C@](O)(CC)[C@H](C)O2)C[C@@H]1C (stereo not given in full)
1.08
2. CCCCC/C=C/CCC(=O)N[C@H]1[C@H](Oc2c3cc4cc2Oc2ccc(cc2Cl)[C@@H](O[C@@H]2O[C@H](CO)[C@@H](O)[C@H](O)[C@H]2NC(C)=O)[C@@H]2NC(=O)[C@H](NC(=O)[C@@H]4NC(=O)[C@H]4NC(=O)C(Cc5ccc(c(Cl)c5)O3)NC(=O)[C@H](N)c3ccc(O)c(c3)Oc3cc(O)cc4c3)c3ccc(O)c(c3)-c3c(OC4O[C@H](CO)[C@@H](O)[C@H](O)[C@@H]4O)cc(O)cc3[C@@H](C(=O)O)NC2=O)O[C@H](CO)[C@@H](O)[C@@H]1O (stereo not given in full)
0.995
3. Nc1nc(=S)c2[nH]cnc2[nH]1
0.965
4. CN(C)CCOC(c1ccc(Cl)cc1)c1ccccn1 (stereo not given)
1.03
5. Oc1cc(O)c2c(c1)O[C@H](c1cc(O)c(O)c(O)c1)[C@H](O)C2
1.03
6. COc1cc(CNC(=O)CCCC/C=C/C(C)C)ccc1O
0.965
7. COc1ccc(C(c2ccc(OC)cc2)C(Cl)(Cl)Cl)cc1
1.01
8. COc1ccc(C(CN(C)C)C2(O)CCCCC2)cc1 (stereo not given)
0.978
9. C=CCCCCCCCCCCCc1ccco1
0.979
10. Clc1ccc(C(c2ccc(Cl)cc2)C(Cl)(Cl)Cl)cc1
1
11. Clc1ccc(C(OCCN2CCCCC2)c2ccccc2)cc1 (stereo not given)
1.01
12. CCCCCCCCC(=O)NCc1ccc(O)c(OC)c1
0.995
13. Oc1cc(O)c2c(c1)O[C@H](c1ccc(O)c(O)c1)[C@@H](O)C2
1.01
14. CN1CC(=O)N=C1N
1.02
15. COc1ccc2c(c1)OC/C(=C\c1ccc(OC)c(O)c1)C2=O
0.984
16. COc1ccc2c(c1)OC/C(=C/c1ccc(OC)c(OC)c1)C2=O
1.02
17. COc1ccc([C@H]2Oc3c(I)c(OC)cc(OC)c3C[C@@H]2O)cc1OC
1.01
18. Cc1ccccc1C(OCCN(C)C)c1ccccc1 (stereo not given)
0.986
19. O=C1NCC2(CCN(CCc3ccccc3)CC2)O1
0.987
20. OCC(O)CN1CCN(c2ccccc2)CC1 (stereo not given)
0.963

====

assay: chemical genetic growth profiling, strain panel (AID 1159580);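 note: tested at 20 µM; growth read once vehicle control cultures reached saturation at 30 °C; 1 = growth at the plate median or of vehicle wells; lower values mean less growth of the strain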; settings: S. cerevisiae deletion strains, growth OD, locus YMR223W, strain ubp8, hits give low values
About 2,000 (36%) of roughly 5,500 compounds were called active. About 18% were inconclusive and are not listed. This is one part of the list.
observed_property: normalized growth

1) CC(C)NCC(O)COc1cccc2[nH]ccc12 (centres undefined)
1.03
2) Oc1cc(O)c2c(c1)O[C@H](c1ccc(O)c(O)c1)[C@H](O)C2
1
3) C=CCc1ccc(O)c(OC)c1
0.936
4) NC(=O)c1ccc[n+]([C@@H]2O[C@H](COP(=O)([O-])OP(=O)(O)OC[C@H]3O[C@@H](n4cnc5c(N)ncnc54)[C@H](OP(=O)(O)O)[C@@H]3O)[C@@H](O)[C@H]2O)c1
1.04
5) O=C(O[C@@H]1Cc2c(O)cc(O)cc2O[C@@H]1c1cc(O)c(O)c(O)c1)c1cc(O)c(O)c(O)c1
0.887
6) Oc1cc(O)c2c(c1)OC(c1cc(O)c(O)c(O)c1)C(O)C2c1c(O)cc(O)c2c1OC(c1cc(O)c(O)c(O)c1)C(O)C2c1c(O)cc(O)c2c1OC(c1cc(O)c(O)c(O)c1)C(O)C2 (centres undefined)
0.947
7) C/C=C(\C)C(=O)O[C@H]1C[C@@H](OC(C)=O)[C@@]2(C(=O)OC)CO[C@@H]3C2[C@]12CO[C@](O)(C(=O)OC)[C@H]2[C@](C)(C12O[C@@]1(C)[C@H]1C[C@@H]2OC2OC=C[C@@]21O)[C@@H]3O (some centres undefined)
0.998
8) C[C@@H]1CC(Cl)CC[C@H]1C(=O)OC(C)(C)C (some centres undefined)
1.04
9) O=S(=O)(O)CCS
0.987
10) Oc1cc(O)c2c(c1)O[C@H](c1ccc(O)c(O)c1)[C@@H](O)C2
0.972
11) COc1ccc(CN(CCN(C)C)c2ccccn2)cc1
1.02
12) O=C(Oc1cc(OC(=O)c2ccccc2)c2c(c1)O[C@H](c1ccc(OC(=O)c3ccccc3)c(OC(=O)c3ccccc3)c1)[C@@H](OC(=O)c1ccccc1)C2)c1ccccc1
1.06
13) c1ccc2c(c1)CCCC2C1=NCCN1 (centres undefined)
0.985
14) CC(=O)Oc1cc(OC(C)=O)c2c(c1)O[C@H](c1ccc(OC(C)=O)c(OC(C)=O)c1)[C@H](OC(C)=O)C2
1.02
15) COc1cc(CNC(=O)CCCC/C=C/C(C)C)ccc1O
1
16) O=C1c2ccc(O)cc2O[C@H](c2cc(O)c(O)c(O)c2)[C@H]1O
1.03
17) CN(C)CCN(Cc1ccccc1)c1ccccn1
1.02
18) Oc1cc(O)c2c(c1)O[C@H](c1cc(O)c(O)c(O)c1)[C@H](O)C2
0.991
19) O=c1cccc2ccc(O)c(O)c2c1O
0.69

====

assay: chemical genetic growth profiling, strain panel (AID 1159580);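 note: tested at 20 µM; growth read once vehicle control cultures reached saturation at 30 °C; 1 = growth at the plate median or of vehicle wells; lower values mean less growth of the strain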; conditions: S. cerevisiae deletion strains, growth OD, locus YJL095W, strain BCK1 (second series)
Out of some 5,500 compounds screened, about 2,000 (36%) were called active. Not shown: some 18% with an inconclusive outcome. Cut-off read from the data, not from the text of the source: active = normalized growth mostly below about 0.91 (no sharp cut-off); inconclusive = no clear call, values can overlap the other calls; inactive = mostly above about 0.92. This is one part of the list.
Outcomes: active, inactive

1) CC1CCc2cc(F)cc3c(=O)c(C(=O)O)cn1c23 (stereo unspecified)
inactive
2) Cn1c(=O)c2c(ncn2CC(O)CO)n(C)c1=O (stereo unspecified)
inactive
3) CN(C)CCCC1(c2ccc(F)cc2)OCc2cc(C#N)ccc21 (stereo unspecified)
inactive
4) c1ccc2c(c1)sc1ccccc12
active
5) CCn1cc(C(=O)O)c(=O)c2cc(F)c(N3CCNC(C)C3)c(F)c21 (stereo unspecified)
inactive
6) CC1COc2c(N3CCN(C)CC3)c(F)cc3c(=O)c(C(=O)O)cn1c23 (stereo unspecified)
inactive

====

test: chemical genetic growth profiling, strain panel (AID 1159580);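 note: tested at 20 µM; growth read once vehicle control cultures reached saturation at 30 °C; 1 = growth at the plate median or of vehicle wells; lower values mean less growth of the strain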; settings: S. cerevisiae deletion strains, growth OD, locus YER155C, strain BEM2 (second series)
Hit rate of the full screen: of about 5,500 compounds, about 2,000 (36%) were called active. Another 18% or so got no clear call; they are omitted. Cut-off read from the data, not from the text of the source: active = normalized growth mostly below about 0.91 (no sharp cut-off); inconclusive = no clear call, values can overlap the other calls; inactive = mostly above about 0.92. This is one part of the list.
Labels: label 1 (active), label 0 (inactive)

1. C/C=C(\C)C(=O)O[C@H]1C[C@@H](OC(C)=O)[C@@]2(C(=O)OC)CO[C@@H]3C2[C@]12CO[C@](O)(C(=O)OC)[C@H]2[C@](C)(C12O[C@@]1(C)[C@H]1C[C@@H]2OC2OC=C[C@@]21O)[C@@H]3O (stereo partly drawn)
label 0
2. COc1ccc2c(c1)OC/C(=C\c1ccc(OC)c(O)c1)C2=O
label 1
3. COc1ccc2c(c1)OC/C(=C/c1ccc(OC)c(OC)c1)C2=O
label 1
4. O=C(O)c1cc2cc(F)ccc2[nH]1
label 0
5. COc1cc([C@@H]2c3cc4c(cc3[C@@H](O)C3COC(=O)C32)OCO4)cc(OC)c1O (stereo partly drawn)
label 0
6. COc1ccc2c(c1)OC1(O)COc3cc(OC)c(OC)cc3C1=C2 (stereo not drawn)
label 0
7. CC[C@@H](C(=O)C(C)[C@@H](O)[C@H](C)CCc1ccc(C)c(O)c1C(=O)O)C1OC(CC)(C2CC[C@](O)(CC)[C@H](C)O2)C[C@@H]1C (stereo partly drawn)
label 0
8. COc1cc([C@@H]2c3cc4c(cc3C(OC3O[C@@H]5COC(C)O[C@H]5[C@H](O)[C@H]3O)C3COC(=O)[C@@H]32)OCO4)cc(OC)c1O (stereo partly drawn)
label 0

// data source = PubChem BioAssay AID1159580
